- experimental.protocol: photoluminescence quantum yield (fraction); solvent given as SMILES
- condition.info: in CCO
attribute.measured: photoluminescence quantum yield

{"structure.notation": "CC1(C)[C@@H]2CC[C@]1(C)c1nc3cc(-c4cccs4)ccc3nc12", "attribute.measured": "photoluminescence quantum yield", "meas.value": 0.37}
{"structure.notation": "N#CC(C#N)=Cc1ccc(-c2ccc(O)c(-c3nc4ccccc4s3)c2)s1", "attribute.measured": "photoluminescence quantum yield", "meas.value": 0.0198}
{"structure.notation": "CCC1=C(C)C2=C(c3c4ccccc4c(-c4ccccc4)c4ccccc34)c3c(C)c(CC)c(C)n3[B-](F)(F)[N+]2=C1C", "attribute.measured": "photoluminescence quantum yield", "meas.value": 0.804}
{"structure.notation": "CCOC(=O)c1cc(C(=O)OCC)c2ccc(C)cc2n1", "attribute.measured": "photoluminescence quantum yield", "meas.value": 0.019}
{"structure.notation": "CN(C)c1ccc(/C=C/C=C2\\CC/C(=C\\c3ccc(N(C)C)cc3)C2=O)cc1", "attribute.measured": "photoluminescence quantum yield", "meas.value": 0.23}
{"structure.notation": "CCOC(=O)c1cc(C(=O)OCC)c2c(C)ccc(O)c2n1", "attribute.measured": "photoluminescence quantum yield", "meas.value": 0.26}
{"structure.notation": "O=C(O)c1cc2c(ccc3ccccc32)oc1=O", "attribute.measured": "photoluminescence quantum yield", "meas.value": 0.07}
{"structure.notation": "CCC1=C(C)C2=C(c3ccc(-c4c5ccccc5c(-c5ccccc5)c5ccccc45)cc3)c3c(C)c(CC)c(C)n3[B-](F)(F)[N+]2=C1C", "attribute.measured": "photoluminescence quantum yield", "meas.value": 0.841}
{"structure.notation": "CC1(C)CC(/C=C/c2ccc(-n3cccn3)cc2)=CC(=C(C#N)C#N)C1", "attribute.measured": "photoluminescence quantum yield", "meas.value": 0.0001}
